Collected pIC50 values appear next to each entry.
# SUBJECT_OF_TEST: FGFR4 (Homo sapiens, UniProt P22455)
# Construct: purchased Invitrogen
# Sequence (P22455 22-802): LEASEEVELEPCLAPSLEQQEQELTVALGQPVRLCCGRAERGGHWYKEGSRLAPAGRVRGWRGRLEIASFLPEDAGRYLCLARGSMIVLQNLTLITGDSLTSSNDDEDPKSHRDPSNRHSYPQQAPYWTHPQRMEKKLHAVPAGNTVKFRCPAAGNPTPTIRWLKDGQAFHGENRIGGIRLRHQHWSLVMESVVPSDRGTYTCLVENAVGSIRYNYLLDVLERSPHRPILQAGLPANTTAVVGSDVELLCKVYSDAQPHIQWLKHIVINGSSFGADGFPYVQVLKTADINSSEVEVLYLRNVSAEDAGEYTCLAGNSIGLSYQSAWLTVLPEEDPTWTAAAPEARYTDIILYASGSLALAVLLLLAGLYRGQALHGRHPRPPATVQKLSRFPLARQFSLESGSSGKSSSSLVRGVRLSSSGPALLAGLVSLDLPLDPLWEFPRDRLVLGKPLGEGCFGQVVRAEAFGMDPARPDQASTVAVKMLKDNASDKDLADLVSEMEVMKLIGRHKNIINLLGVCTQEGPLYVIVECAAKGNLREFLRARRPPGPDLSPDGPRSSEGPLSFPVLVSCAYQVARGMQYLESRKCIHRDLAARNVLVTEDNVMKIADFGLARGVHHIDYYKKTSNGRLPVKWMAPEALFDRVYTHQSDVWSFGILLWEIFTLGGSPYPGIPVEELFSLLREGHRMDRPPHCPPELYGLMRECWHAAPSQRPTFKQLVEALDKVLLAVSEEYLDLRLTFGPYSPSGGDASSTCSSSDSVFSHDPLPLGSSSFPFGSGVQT
# ASSAY_SUMMARY: IC50 Profiling of Kinase Activity Inhibition (Kinase HotSpot assay)
# Format: biochemical
# MEASUREMENT_SETUP: Table 1
pIC50: −log10 of the molar value. Counter-ions that a name gives are not always drawn.

COMPOUND | pIC50
CCN1CCN(c2ccc(Nc3cc(N(C)C(=O)Nc4c(Cl)c(OC)cc(OC)c4Cl)ncn3)c(NC(=O)/C=C\Cl)c2)CC1 [Compound 181] | > 9.00
C=CC(=O)Nc1ccccc1Nc1cc(N(Cc2ccccn2)C(=O)Nc2c(Cl)c(OC)cc(OC)c2Cl)ncn1 [Compound 131] | > 9.00
C=CC(=O)Nc1ccccc1Nc1cc(N(Cc2ccccc2)C(=O)Nc2c(Cl)c(OC)cc(OC)c2Cl)ncn1 [Compound 130] | 8.70
C=CC(=O)Nc1cc(N2CCN(CC)CC2)ccc1Nc1cc(N(C)C(=O)Nc2c(Cl)cccc2Cl)ncn1 [Compound 140] | > 9.00
C=CC(=O)Nc1ccccc1Nc1cc(N(Cc2ccncc2)C(=O)Nc2c(Cl)c(OC)cc(OC)c2Cl)ncn1 [Compound 132] | > 9.00
C=CC(=O)Nc1cc(N2CCN(CC)CC2)ccc1Nc1cc(N(C)C(=O)Nc2c(F)c(OC)cc(OC)c2Cl)ncn1 [Compound 144] | > 9.00
C=CC(=O)Nc1cc(OCCO)ccc1Nc1cc(N(C)C(=O)Nc2c(Cl)c(OC)cc(OC)c2Cl)ncn1 [Compound 164, 2,2,2-trifluoroacetate] | > 9.00
C=CC(=O)Nc1cccc(OC)c1Nc1cc(N(C)C(=O)Nc2c(Cl)c(OC)cc(OC)c2Cl)ncn1 [Compound 166] | > 9.00
C=CC(=O)Nc1ccccc1Nc1cc(N(C)C(=O)Nc2cccc(OC)c2Cl)ncn1 [Compound 103] | 6.17
C=CC(=O)Nc1cc(C(=O)N(C)C)ccc1Nc1cc(N(C)C(=O)Nc2c(Cl)c(OC)cc(OC)c2Cl)ncn1 [Compound 149] | > 9.00
COc1cc(OC)c(Cl)c(NC(=O)N(C)c2cc(Nc3ccccc3NC(=O)/C=C/Cl)ncn2)c1Cl [Compound 170] | 8.10
COc1cc(OC)c(Cl)c(NC(=O)N(C)c2cc(Nc3ccccc3NC(=O)/C=C\Cl)ncn2)c1Cl [Compound 171] | 8.52
C#CC(=O)Nc1ccccc1Nc1cc(N(C)C(=O)Nc2c(Cl)c(OC)cc(OC)c2Cl)ncn1 [Compound 114] | > 9.00
C=CC(=O)Nc1cc(N2CCN(CCN)CC2)ccc1Nc1cc(N(C)C(=O)Nc2c(Cl)c(OC)cc(OC)c2Cl)ncn1 [Compound 161, TFA salt] | > 9.00
C=CC(=O)Nc1cc(C(C)O)ccc1Nc1cc(N(C)C(=O)Nc2c(Cl)c(OC)cc(OC)c2Cl)ncn1 (stereo not shown) [Compound 156] | > 9.00
C=CC(=O)N(C)c1cc(N2CCN(CC)CC2)ccc1Nc1cc(N(C)C(=O)Nc2c(Cl)c(OC)cc(OC)c2Cl)ncn1 [Compound 152] | 7.85
C=CC(=O)Nc1cc(N2CCN(CCO)CC2)ccc1Nc1cc(N(C)C(=O)Nc2c(Cl)c(OC)cc(OC)c2Cl)ncn1 [Compound 168, TFA salt] | > 9.00
C=CC(=O)Nc1cc(N2CCN(CC)CC2)ccc1Nc1cc(N(C)C(=O)Nc2cc(OC)cc(OC)c2Cl)ncn1 [Compound 141] | 8.70
C=CC(=O)Nc1cccc(Cl)c1Nc1cc(N(C)C(=O)Nc2c(Cl)c(OC)cc(OC)c2Cl)ncn1 [Compound 167] | > 9.00
C=CC(=O)Nc1cc(N2CCN(S(C)(=O)=O)CC2)ccc1Nc1cc(N(C)C(=O)Nc2c(Cl)c(OC)cc(OC)c2Cl)ncn1 [Compound 125] | > 9.00
C=CC(=O)Nc1ccccc1Nc1cc(N(CCCN2CCN(C)CC2)C(=O)Nc2c(Cl)c(OC)cc(OC)c2Cl)ncn1 [Compound 121] | > 9.00
C=CC(=O)Nc1cc(C2CCN(C)CC2)ccc1Nc1cc(N(C)C(=O)Nc2c(Cl)c(OC)cc(OC)c2Cl)ncn1 [Compound 112] | > 9.00
